# Test system: HEK-293T
# PROTOCOL: Multiplex assay against HEK293T
# Assay type: toxicity, cell-based
# STUDY CONDITIONS: human, 24 h, 1 µM, compound concentration 1 uM, replicate 1
OBSERVED PROPERTY: Population Fragmented Nuclei (%)
Answer in %, number only, no unit symbol.

// below: answered compounds
- CNC(=O)Nc1ccc2c(c1)[C@@]1(CC2)OC(=O)N(CC(=O)N(Cc2ccc(F)cc2)[C@@H](C)C(F)(F)F)C1=O: 12
- CC(C)NC(=O)N1CC[C@H](NC2=Nc3cc(F)ccc3N(CC(F)F)c3ccc(Cl)cc32)C1: 20

For C=CC(=O)Nc1cccc(Sc2nc(Nc3ccc(N4CCN(C)CC4)cc3)ncc2Cl)c1 the compound record lists Population Fragmented Nuclei (%) as 34

For C=CC(=O)Nc1ccc2[nH]c(=O)n(C3CCN(Cc4ccc(-c5nc6cc[nH]c(=O)c6cc5-c5ccccc5)cc4)CC3)c2c1 the compound record lists Population Fragmented Nuclei (%) as 14

For CCOC(=O)Nc1cc(-c2ccc(C)c(NS(C)(=O)=O)c2)nn2c(C)nnc12 the compound record lists Population Fragmented Nuclei (%) as 11

For CNC(=O)Nc1ccc(-c2nc(N3CC4CCC(C3)O4)c3cnn(C4CCC5(CC4)OCCO5)c3n2)cc1 the compound record lists Population Fragmented Nuclei (%) as 32
